Target: Human adrenergic α2B receptor (Homo sapiens)
Assay: Radioligand binding, adrenergic α2B (Protocol Group B)
Design: purchased Milipore (Millipore)
Settings: 30 nM compound; Protocol Group B; 0.03 µM
Protocol: To evaluate the activity of compounds in radioligand binding assays, Human adrenergic α2B receptor obtained from recombinant cell membrane from Milipore. Binding experiments were carried out in Tris-HCl buffer (50 mM Tris-HCl buffer, pH 7.4, 5 mM Mgcl2, 1 mM Cacl2, 0.2% BSA) as recommended by Milipore. […] Non-specific binding was estimated in the presence of 10 μM Rauwolscine. […] Compounds were screened at various concentrations, using 1% DMSO as vehicle. […]
Can you tell me Percentage inhibition of ligand binding, Adrenergic α2B (30 nM) for the items I'm about to list?
Quote the value and follow it with the unit of measurement.

Below, 3 compounds whose answers are already recorded.
compound="Cc1ccc2c(c1)c1c(n2CC(C)(O)c2ccncc2)CC2CCCN2C1 (single isomer, unassigned) [37c]" assayed_target="Human adrenergic α2B receptor (Homo sapiens)" observed_result=46%
compound="Cc1cc(F)cc2c3c(n(CC(C)(O)c4ccncc4)c12)CC1CCCN1C3 (single isomer, unassigned) [78b]" assayed_target="Human adrenergic α2B receptor (Homo sapiens)" observed_result=7%
compound="Cc1ccc2c(c1F)c1c(n2CC(C)(O)c2cccnc2)CCN2CCCC12 (single isomer, unassigned) [87d]" assayed_target="Human adrenergic α2B receptor (Homo sapiens)" observed_result=97%

Batch of 2 compounds: report Percentage inhibition of ligand binding, Adrenergic α2B (30 nM) for each.
1. Cc1ccc2c(c1)c1c(n2CC(C)(O)c2cccnc2)CC2CCCN2C1 (centres unmarked) [41d]
2. OC(Cn1c2c(c3cc(Cl)cc(F)c31)C1CCCN1CC2)c1ccncc1 (single isomer, unassigned) [135d]

1: 21%; 2: 8%

----------
molecular target: Human adrenergic α2B receptor (Homo sapiens, UniProt P18089); assay: Radioligand binding, adrenergic α2B (Protocol Group B); parameters: purchased Milipore (Millipore); settings: 0.1 μM compound; Protocol Group B; read-out: Percentage inhibition of ligand binding, Adrenergic α2B (0.1 μM)
Sequence (P18089 whole entry): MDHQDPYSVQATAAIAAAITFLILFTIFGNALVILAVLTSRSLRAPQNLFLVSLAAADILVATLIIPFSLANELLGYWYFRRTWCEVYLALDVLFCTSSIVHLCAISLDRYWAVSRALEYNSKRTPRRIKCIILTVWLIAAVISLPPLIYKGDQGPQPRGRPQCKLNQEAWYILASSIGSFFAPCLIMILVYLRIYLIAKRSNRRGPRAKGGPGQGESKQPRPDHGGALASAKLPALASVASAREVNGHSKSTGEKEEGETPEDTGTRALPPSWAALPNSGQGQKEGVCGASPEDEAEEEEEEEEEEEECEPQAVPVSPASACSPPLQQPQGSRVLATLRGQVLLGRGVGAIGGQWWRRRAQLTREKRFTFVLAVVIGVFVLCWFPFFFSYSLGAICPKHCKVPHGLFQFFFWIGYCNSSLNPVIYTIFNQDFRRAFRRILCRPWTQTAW
So I've got a bunch of compounds here, and I need their inhibition at 0.1 µM values.
Numbers only, in %.

compound="Cc1cc(F)c2c(c1)c1c(n2CC(C)(O)c2ccncc2)CCN2CCCC12 (single isomer, unassigned) [81a]" observation_type="inhibition at 0.1 µM" unit_spec=% observed_result=99

Hi team, please reply with inhibition at 0.1 µM for each item in this list.
1. Cc1ccc2c(c1)c1c(n2CC(C)(O)c2cccnc2)CCN(CC(F)F)C1 (stereo not drawn) [compound 58]
2. Cc1ccc2c(c1)c1c(n2CC(OCC2CCC2)c2ccncc2)CCN(C)C1 (stereo not drawn) [59b]
3. CN1CCc2c(c3cccc(Cl)c3n2CC(O)c2cccnc2)C1 (stereo not drawn) [compound 20]
4. Cc1cc(F)c2c(c1)c1c(n2CC(C)(O)c2cccnc2)CCN2CCCC12 (stereo not drawn) [Compound No. 79a]
5. Cc1ccc2c(c1)c1c(n2CC(C)(O)c2ccc(N)nc2)CCN(C)C1 (stereo not drawn) [compound 47]
6. Cc1ccc2c(c1)c1c(n2CC(C)(O)c2cnc3ccccc3c2)CCN(C)C1 (stereo not drawn) [compound 32]
7. Cc1cc(F)cc2c3c(n(CC(C)(O)c4cccnc4)c12)CCN1CCCC31 (stereo not drawn) [75b]

[-2, 99, 54, 97, 83, 69, -1]

Would you be so kind as to report inhibition at 0.1 µM for each listed record?
1. Cc1ccc2c(c1)c1c(n2CC(O)c2cccnc2)C(F)(F)CN(C)C1 (stereo not drawn) [compound 30]
2. Cc1cc(C)c2c(c1)c1c(n2CC(C)(O)c2ccncc2)CCN2CCCC12 (single isomer, unassigned) [19a]
3. Cc1cc2c3c(n(CC(O)c4ccncc4)c2cc1Cl)CCN1CCCC31 (stereo not drawn) [compound 21]
4. Cc1ccc2c(c1)c1c(n2CC(O)c2cc[n+]([O-])cc2)CCN2CCCC12 (stereo not drawn) [compound 22]

12
100
96
72

Hey, quick one: what's inhibition at 0.1 µM for each of these?
1. Cc1ccc2c(c1)c1c(n2CC(OCC2CCC2)c2ccncc2)CCN(C)C1 (single isomer, unassigned) [59a]
2. Cc1ccc2c(c1)c1c(n2CC(C)(O)c2ccncc2)CCN2CCCC12 (single isomer, unassigned) [13c]
3. Cc1cc2c3c(n(CC(C)(O)c4ccncc4)c2cc1Cl)CCN1CCCC31 (single isomer, unassigned) [50a]

1. 100
2. 74
3. 100
